biological target: recombinant human VAP-1 (Homo sapiens); construct: purchased R&D systems; assay: Activity on recombinant human VAP-1, Amplex Red HRP-coupled hydrogen peroxide assay, benzylamine substrate; assay type: biochemical; details: recombinant human VAP-1, benzylamine substrate, 30 min preincubation at 37° C.; read-out: Inhibitory Activity (IC50, nM) human VAP-1
Sequence (Q16853 whole entry): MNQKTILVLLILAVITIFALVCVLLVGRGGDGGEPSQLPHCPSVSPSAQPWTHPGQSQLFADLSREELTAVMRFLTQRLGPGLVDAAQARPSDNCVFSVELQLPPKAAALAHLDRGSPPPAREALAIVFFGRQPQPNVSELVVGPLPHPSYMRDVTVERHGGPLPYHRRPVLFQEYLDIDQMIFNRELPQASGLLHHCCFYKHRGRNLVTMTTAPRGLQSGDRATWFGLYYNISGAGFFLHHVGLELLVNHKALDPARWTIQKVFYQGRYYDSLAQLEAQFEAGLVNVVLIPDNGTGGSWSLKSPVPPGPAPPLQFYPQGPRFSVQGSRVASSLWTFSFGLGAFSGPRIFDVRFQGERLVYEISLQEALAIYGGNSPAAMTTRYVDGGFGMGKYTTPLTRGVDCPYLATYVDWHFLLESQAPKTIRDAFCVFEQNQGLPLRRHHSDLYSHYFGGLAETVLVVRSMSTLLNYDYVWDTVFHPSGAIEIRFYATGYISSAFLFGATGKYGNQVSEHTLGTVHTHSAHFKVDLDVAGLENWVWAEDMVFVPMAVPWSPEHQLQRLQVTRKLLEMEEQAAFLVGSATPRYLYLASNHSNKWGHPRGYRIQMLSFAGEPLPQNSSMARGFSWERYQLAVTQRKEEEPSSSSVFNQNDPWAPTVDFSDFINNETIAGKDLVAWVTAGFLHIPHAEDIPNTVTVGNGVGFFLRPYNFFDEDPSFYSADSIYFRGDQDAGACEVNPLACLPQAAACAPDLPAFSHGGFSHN
Structures can show the parent of a compound that is named as a salt.
measured-attribute: IC50 (nM)

[I] NC/C(=C\F)Cn1ncn(-c2cccc(-c3ccc4c(c3)NC(=O)CO4)c2)c1=O [Example 103, hydrochloride]
[II] Cc1cc(Br)cnc1-n1cnn(C/C(=C/F)CN)c1=O [Example 32, hydrochloride]
Pick one: I or II . Which one has the lower reported IC50? Choose, then provide that item's label.
I

[1] NC/C(=C\F)Cn1ncn(-c2cccc(-c3ccc(-c4nnc[nH]4)cc3)c2)c1=O
[2] NC/C(=C/F)Cn1ncn(-c2ccc(F)cc2)c1=O
[3] CC(=O)Nc1ccc(-c2cc(C)c(-n3cnn(C/C(=C/F)CN)c3=O)cn2)cc1
[4] CC(=O)Nc1cc(-c2cccc(-n3cnn(C/C(=C/F)CN)c3=O)c2C)ccn1
Sort the 4 compounds by IC50; largest first, smallest last. Write out the labels following the order that was asked for.
4, 2, 3, 1

[1] CC(=O)Nc1ccc(-c2cccc(-c3cccc(-n4cnn(C/C(=C/F)CN)c4=O)c3)c2)cc1 [Example 69, hydrochloride]
[2] Cc1c(-c2ccc3sc(N)nc3c2)cccc1-n1cnn(C/C(=C/F)CN)c1=O
[3] NC/C(=C\F)Cn1ncn(-c2cccc(-c3ccc(N4CCOCC4)c(F)c3)c2)c1=O [Example 75, hydrochloride]
With regard to IC50, arrange the entries in ascending order, please. Write out the labels following the order that was asked for.
1, 3, 2

====

target: recombinant human MAO-A (monoamine oxidase-A) (Homo sapiens); construct: purchased Sigma-Aldrich; test: Activity on recombinant human MAO-A, Amplex Red method, 0.5 mM tyramine substrate; format: biochemical; settings: 0.5 mM tyramine, read-out: Inhibitory Activity (IC50, nM) MAO-A
Sequence (P21397 whole entry): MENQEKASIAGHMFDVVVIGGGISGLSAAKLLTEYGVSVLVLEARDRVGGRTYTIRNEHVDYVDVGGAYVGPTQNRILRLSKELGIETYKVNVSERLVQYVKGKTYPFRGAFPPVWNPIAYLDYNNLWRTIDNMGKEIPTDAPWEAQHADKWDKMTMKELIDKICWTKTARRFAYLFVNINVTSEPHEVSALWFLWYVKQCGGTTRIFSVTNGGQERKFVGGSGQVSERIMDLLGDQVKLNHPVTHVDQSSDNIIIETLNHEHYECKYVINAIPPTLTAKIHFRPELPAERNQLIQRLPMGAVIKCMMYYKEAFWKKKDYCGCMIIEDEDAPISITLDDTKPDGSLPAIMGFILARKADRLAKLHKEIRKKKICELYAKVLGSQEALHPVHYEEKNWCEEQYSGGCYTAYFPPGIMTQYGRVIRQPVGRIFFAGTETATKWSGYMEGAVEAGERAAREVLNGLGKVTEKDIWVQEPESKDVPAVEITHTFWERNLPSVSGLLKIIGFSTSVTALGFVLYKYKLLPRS
Structures can show the parent of a compound that is named as a salt.
measured-attribute: IC50

compound: NC/C(=C\F)Cn1ncn(-c2cc(F)c(Br)c(F)c2)c1=O [Example 20, hydrochloride]
IC50: > 100000 nM
--
compound: Cc1ccc(-c2cccc(-n3cnn(C/C(=C/F)CN)c3=O)c2)c2cccnc12 [Example 105, hydrochloride]
IC50: 65200 nM
--
compound: Cc1cc(-c2ccc(-c3noc(C(C)C)n3)cc2)cnc1-n1cnn(C/C(=C/F)CN)c1=O [Example 142, hydrochloride]
IC50: > 100000 nM

Given item Cc1cc(-n2cnn(C/C(=C/F)CN)c2=O)cnc1Br [Example 27, hydrochloride] , the value recorded as its IC50 is > 100000 nM

====

biological target: recombinant human VAP-1 (Homo sapiens); construct: purchased R&D systems; assay: Activity on recombinant human VAP-1, Amplex Red HRP-coupled hydrogen peroxide assay, benzylamine substrate; type: biochemical; conditions: recombinant human VAP-1, benzylamine substrate, 30 min preincubation at 37° C.; read-out: Inhibitory Activity (IC50, nM) human VAP-1
Where a name gives a salt, the structure may show the parent alone.
measured-attribute: IC50 (nM)

Would you please look over these solved cases?
compound: Cc1cc(-n2cnn(C/C(=C/F)CN)c2=O)cnc1Br [Example 27, hydrochloride]
measured-attribute: IC50
display-unit: nM
result: 2.5
--
compound: Cc1cc(-c2cccc(-c3nc[nH]n3)c2)ncc1-n1cnn(C/C(=C/F)CN)c1=O
measured-attribute: IC50
display-unit: nM
result: 0.77
--
compound: NC/C(=C\F)Cn1ncn(-c2cccc(-c3cccc(-c4ncon4)c3)c2)c1=O
measured-attribute: IC50
display-unit: nM
result: 0.53

[1] NC/C(=C\F)Cn1ncn(-c2cccc(-c3ccc4c(c3)OCCO4)c2)c1=O [Example 95, hydrochloride]
[2] NC/C(=C\F)Cn1ncn(-c2cccc(-c3ccc(C(=O)N4CCOCC4)cc3)c2)c1=O [Example 78, hydrochloride]
I'd appreciate it if you could identify which of 1 and 2 has the greater IC50. Choose, then provide that item's label.
2
